Recorded values, source the supplement of paper PMC12645437.

Biological target: T1, CRBN, Q96SW2;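 also: pooled lentiviral library of zinc finger degron-EGFP fusions in mCherry-positive Jurkat cells, FACS-sorted after compound exposure, with degron abundance counted by next-generation sequencing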
T1 chain: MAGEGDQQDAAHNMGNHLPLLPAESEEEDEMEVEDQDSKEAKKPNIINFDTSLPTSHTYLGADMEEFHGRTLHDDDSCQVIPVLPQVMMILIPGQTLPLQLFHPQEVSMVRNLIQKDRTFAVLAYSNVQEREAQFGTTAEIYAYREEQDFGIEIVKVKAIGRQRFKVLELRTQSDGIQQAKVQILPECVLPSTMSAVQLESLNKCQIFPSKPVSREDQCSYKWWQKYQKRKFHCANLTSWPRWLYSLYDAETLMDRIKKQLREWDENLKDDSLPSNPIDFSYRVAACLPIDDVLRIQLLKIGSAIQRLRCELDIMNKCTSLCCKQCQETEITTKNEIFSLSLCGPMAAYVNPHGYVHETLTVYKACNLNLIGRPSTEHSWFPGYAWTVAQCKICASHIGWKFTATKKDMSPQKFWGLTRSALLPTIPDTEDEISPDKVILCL
Assay: log2 fold change of degron read counts, EGFP-low vs EGFP+ sorted cells (limma voom), compound-induced degradation; higher = more compound-induced degradation of the degron-EGFP fusion; degrons are variants of IKZF1/3 zinc finger 2; compound dose not given here
Conditions: Jurkat; 18 h; compound: compound 19 (5-tert-butyl-thalidomide)
Over roughly 8,300 sequences, “log2 fold change of degron read counts, EGFP-low vs EGFP+ sorted cells (limma voom), compound-induced degradation” has its median near -1.1; the highest 2% begin near 3.2. What follows is part of a selection rich in the highest values, with near analogues and random picks from the rest.
Classify by measured log2 fold change of degron read counts: y if it is equal to or exceeds 1, n if it is smaller.

INPUT: Reported log2 fold change of degron read counts at or above 1? FFCPVCGAPFTQKGNLLRHIKL [46F_47F_49P_50V_52G_53A_54P_55F_67L_, Q9UKT9]
OUTPUT: y

INPUT: Exam item: decide whether the reported log2 fold change of degron read counts for FWCEICGAIFTQKGNLLRHIKL [46F_47W_49E_50I_52G_53A_54I_55F_67L_, Q9UKT9] is at least 1.
OUTPUT: y

INPUT: Is log2 fold change of degron read counts for FECEQCGADFTQKGNLLRHIKL [46F_47E_49E_50Q_52G_53A_54D_55F_67L_, Q9UKT9] at or above 1?
OUTPUT: n

INPUT: I'd appreciate it if you could say whether FHCEICGAIFTQKGNLLRHIKL [46F_47H_49E_50I_52G_53A_54I_55F_67L_, Q9UKT9] has log2 fold change of degron read counts at least equal to 1.
OUTPUT: y

INPUT: Kindly determine if log2 fold change of degron read counts recorded for FLCNQCGADFTQKGNLLRHIKL [46F_47L_49N_50Q_52G_53A_54D_55F_67L_, Q9UKT9] is above or exactly 1.
OUTPUT: n
